- Test system: MDA-MB-231 breast cell adenocarcinoma
- EXPERIMENT: Relative colony forming efficiency after antisense treatment (Table 13, FIG. 11, FIG. 12)
- Assay type: cell-based, human
- CONDITIONS: 0.2 μM antisense oligodeoxyribonucleotide phosphorothioate; MDA-MB-231 cells; averages of 2-8 determinations
Strand notation (5' to 3'): a small letter for the sugar, then the base; units joined by * are phosphorothioate-linked, units joined directly phosphodiester-linked; [ ] holds rarer units or linkages, { } end groups; capitals alone tell only the bases. d = 2'-deoxy (DNA)
Each record here notes measured Reduced relative colony forming efficiency, expressed as % inhibition, MDA-MB-231.
READOUT TYPE: Reduced relative colony forming efficiency, expressed as % inhibition, MDA-MB-231 (%)

INSERT INTO results (chain, u, result_value) VALUES
  ('GCAAAGGCTACAACACGTTC (antisense; DNA, all phosphorothioate, methylation of C not given here) [AS-II-861-20]', '%', 89.98),
  ('TCGCTCCACCAAGTTTTCAT (dT*dC*dG*dC*dT*dC*dC*dA*dC*dC*dA*dA*dG*dT*dT*dT*dT*dC*dA*dT; antisense) [AS-II-619-20]', '%', 91.08),
  ('CACACAACCTACTTACACCA (antisense; DNA, all phosphorothioate, methylation of C not given here) [AS-II-2372-20]', '%', 90.09),
  ('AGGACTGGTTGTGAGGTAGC (DNA, all phosphorothioate, methylation of C not given here) [AS-II-1499-20]', '%', 41.26),
  ('GCAAAGAAAGCCAGAACATG (dG*dC*dA*dA*dA*dG*dA*dA*dA*dG*dC*dC*dA*dG*dA*dA*dC*dA*dT*dG; antisense) [AS-II-579-20]', '%', 66.89),
  ('CCTGTCTTCTATCTGGCACC (antisense; DNA, all phosphorothioate, methylation of C not given here) [AS-II-1989-20]', '%', 54.9),
  ('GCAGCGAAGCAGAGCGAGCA (antisense dG*dC*dA*dG*dC*dG*dA*dA*dG*dC*dA*dG*dA*dG*dC*dG*dA*dG*dC*dA) [AS-II-166-20]', '%', 29.02);

* * *

- Tested on: HCT116 colon cell carcinoma
- EXPERIMENT: Relative colony forming efficiency after antisense treatment (Table 13)
- Assay type: cell-based, human
- CONDITIONS: 0.2 μM antisense oligodeoxyribonucleotide phosphorothioate; HCT116 cells; averages of 2-8 determinations
Strand notation (5' to 3'): a small letter for the sugar, then the base; units joined by * are phosphorothioate-linked, units joined directly phosphodiester-linked; [ ] holds rarer units or linkages, { } end groups; capitals alone tell only the bases. d = 2'-deoxy (DNA)
READOUT TYPE: Reduced relative colony forming efficiency, expressed as % inhibition, HCT116 (%)

INSERT INTO measurements (chain, result_value) VALUES
  ('CGGCGGCGTGTT (dC*dG*dG*dC*dG*dG*dC*dG*dT*dG*dT*dT) [AS-II-288-12]', 67.57),
  ('GTAAGTCACAGCCAGCCAGG (DNA, all phosphorothioate, methylation of C not given here) [AS-II-1560-20]', 85.81),
  ('ACTGCCATTGTCACTGCTAT (DNA, all phosphorothioate, methylation of C not given here) [AS-II-1581-20]', 66.85),
  ('GCGGCGGGGGTTTTCTCTCA (dG*dC*dG*dG*dC*dG*dG*dG*dG*dG*dT*dT*dT*dT*dC*dT*dC*dT*dC*dA; antisense) [AS-II-412-20]', 27.98),
  ('AAAACCTTGCTAAAACCCAG (DNA, all phosphorothioate, methylation of C not given here) [AS-II-1197-20]', 84.85),
  ('ATGGAAAAAAAAAATCAGCC (DNA, all phosphorothioate, methylation of C not given here) [AS-II-1390-20]', 62.18),
  ('GGGCACATCTTCAGTTCATT (DNA, all phosphorothioate, methylation of C not given here) [AS-II-1364-20]', 77.29),
  ('AAGCGGCGGGGGTTTTCTCT (dA*dA*dG*dC*dG*dG*dC*dG*dG*dG*dG*dG*dT*dT*dT*dT*dC*dT*dC*dT; antisense) [AS-II-414-20]', 19.1),
  ('GCGAGCGGGACACGGAGGGA (dG*dC*dG*dA*dG*dC*dG*dG*dG*dA*dC*dA*dC*dG*dG*dA*dG*dG*dG*dA; antisense) [AS-II-201-20]', 45.56),
  ('ACCCCTCACTCCAGCAGCCT (antisense dA*dC*dC*dC*dC*dT*dC*dA*dC*dT*dC*dC*dA*dG*dC*dA*dG*dC*dC*dT) [AS-II-110-20]', 71.69),
  ('GCTATTATCGCCGCCGTGAG (DNA, all phosphorothioate, methylation of C not given here) [AS-II-1773-20]', 75.58),
  ('GACACAAGGCATCGTTTCAA (antisense; DNA, all phosphorothioate, methylation of C not given here) [AS-II-784-20]', 78.09),
  ('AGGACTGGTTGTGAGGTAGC (DNA, all phosphorothioate, methylation of C not given here) [AS-II-1499-20]', 83.01);

* * *

- System: PC-3 prostrate cell adenocarcinoma
- EXPERIMENT: Relative colony forming efficiency after antisense treatment (Table 13)
- Assay type: cell-based, human
- CONDITIONS: 0.2 μM antisense oligodeoxyribonucleotide phosphorothioate; PC-3 cells; averages of 2-8 determinations
Strand notation (5' to 3'): a small letter for the sugar, then the base; units joined by * are phosphorothioate-linked, units joined directly phosphodiester-linked; [ ] holds rarer units or linkages, { } end groups; capitals alone tell only the bases. d = 2'-deoxy (DNA)
Each record here notes measured Reduced relative colony forming efficiency, expressed as % inhibition, PC-3.
READOUT TYPE: Reduced relative colony forming efficiency, expressed as % inhibition, PC-3 (%)

INSERT INTO measurements (chain, u, result_value) VALUES
  ('TATCGCCGCCGTGAGTACAA (DNA, all phosphorothioate, methylation of C not given here) [AS-II-1768-20]', '%', 86.36),
  ('CCCCTTCAGCGGCG (dC*dC*dC*dC*dT*dT*dC*dA*dG*dC*dG*dG*dC*dG) [AS-II-253-14]', '%', 67.26),
  ('TCCTCGGCGGTCCAAA (dT*dC*dC*dT*dC*dG*dG*dC*dG*dG*dT*dC*dC*dA*dA*dA) [AS-II-496-16]', '%', 88.84),
  ('GAACATCAGGCAAGCAAAAT (DNA, all phosphorothioate, methylation of C not given here) [AS-II-1006-20]', '%', 92.58),
  ('ACTGCCATTGTCACTGCTAT (DNA, all phosphorothioate, methylation of C not given here) [AS-II-1581-20]', '%', 85.83),
  ('ATGGTACTCGATGGGGAAGA (dA*dT*dG*dG*dT*dA*dC*dT*dC*dG*dA*dT*dG*dG*dG*dG*dA*dA*dG*dA) [AS-II-439-20]', '%', 77.66),
  ('TCTGCCTTCTTCTTGACACA (antisense; DNA, all phosphorothioate, methylation of C not given here) [AS-II-798-20]', '%', 83.21),
  ('TGGGACAGGGTGCACGGGCG (antisense dT*dG*dG*dG*dA*dC*dA*dG*dG*dG*dT*dG*dC*dA*dC*dG*dG*dG*dC*dG) [AS-II-130-20]', '%', 74.66),
  ('AAACGGCTTCTCACACATAT (antisense; DNA, all phosphorothioate, methylation of C not given here) [AS-II-2151-20]', '%', 84.86),
  ('TGCCTCCGACCCTTCCCA (antisense dT*dG*dC*dC*dT*dC*dC*dG*dA*dC*dC*dC*dT*dT*dC*dC*dC*dA) [AS-II-16-18]', '%', 89.48),
  ('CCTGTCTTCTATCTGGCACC (antisense; DNA, all phosphorothioate, methylation of C not given here) [AS-II-1989-20]', '%', 77.38),
  ('GAAGTCAGCATCCAAGGTAA (DNA, all phosphorothioate, methylation of C not given here) [AS-II-1342-20]', '%', 89.84),
  ('ATCCAGCGCAAGGCCCAGTC (antisense; DNA, all phosphorothioate, methylation of C not given here) [AS-II-816-20]', '%', 94.08),
  ('TCGCTCCACCAAGTTTTCAT (dT*dC*dG*dC*dT*dC*dC*dA*dC*dC*dA*dA*dG*dT*dT*dT*dT*dC*dA*dT; antisense) [AS-II-619-20]', '%', 88.01),
  ('AAAAATCAGCCAAGTAAGGG (DNA, all phosphorothioate, methylation of C not given here) [AS-II-1381-20]', '%', 75),
  ('GCACGGGCGACC (antisense dG*dC*dA*dC*dG*dG*dG*dC*dG*dA*dC*dC) [AS-II-127-12]', '%', 79.56),
  ('TCCTCGCGGTCTTGCTGGCC (dT*dC*dC*dT*dC*dG*dC*dG*dG*dT*dC*dT*dT*dG*dC*dT*dG*dG*dC*dC; antisense) [AS-II-323-20]', '%', 79.76),
  ('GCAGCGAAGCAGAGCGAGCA (antisense dG*dC*dA*dG*dC*dG*dA*dA*dG*dC*dA*dG*dA*dG*dC*dG*dA*dG*dC*dA) [AS-II-166-20]', '%', 74.11),
  ('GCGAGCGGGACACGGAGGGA (dG*dC*dG*dA*dG*dC*dG*dG*dG*dA*dC*dA*dC*dG*dG*dA*dG*dG*dG*dA; antisense) [AS-II-201-20]', '%', 65.08),
  ('CACACAACCTACTTACACCA (antisense; DNA, all phosphorothioate, methylation of C not given here) [AS-II-2372-20]', '%', 86.06),
  ('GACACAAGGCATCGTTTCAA (antisense; DNA, all phosphorothioate, methylation of C not given here) [AS-II-784-20]', '%', 88.99),
  ('CTCTCTCCTCCGATGGTTTG (DNA, all phosphorothioate, methylation of C not given here) [AS-II-1040-20]', '%', 40.08),
  ('GAAACCAAATAAATCAAGCT (DNA, all phosphorothioate, methylation of C not given here) [AS-II-1790-20]', '%', 87.86),
  ('GACATCACTCCCATCCTCTG (DNA, all phosphorothioate, methylation of C not given here) [AS-II-1302-20]', '%', 79.01),
  ('CGTTGAGGAAAATACAGTGA (antisense; DNA, all phosphorothioate, methylation of C not given here) [AS-II-2182-20]', '%', 85.91);
